Ki values by entry
TESTED ON: rNav1.2 sodium channels (HEK-293 cells) (Rattus norvegicus)
EXPERIMENT SUMMARY: steady-state inactivation protocol (availability curves), QPatch automated patch-clamp
Format: cell-based
MEASUREMENT CONTEXT: geometric mean; from shift of availability curve, 30 µM; read-out: Ki−ΔV1/2 (inactivated state affinity)
Text: A)–D) Peak amplitudes of evoked currents (5 Hz trains of 5 depolarizations from −90 to −10 mV) are plotted against time. Black dots: Control. Grey dots: Drug perfusion. […] Calculation of properties of inhibition is illustrated. […] E) Calculation of Kr and Ki values from steady-state availability curves. Standard steady-state inactivation protocols were used to measure the shift of steady-state availability curve caused by the drugs. […] State-dependence (SD) was quantified as the ratio Kr/Ki. […]
Numeric only. Scale: nM

Please review the entries below; each comes with its answer.
line_notation=Cc1nc2sccn2c(=O)c1CCN1CCC(=C(c2ccc(F)cc2)c2ccc(F)cc2)CC1 tested_on="rNav1.2 sodium channels (HEK-293 cells) (Rattus norvegicus)" unit_annotation=nM reported_result=7100
line_notation=CN(C)CCCN1c2ccccc2Sc2ccc(Cl)cc21 tested_on="rNav1.2 sodium channels (HEK-293 cells) (Rattus norvegicus)" unit_annotation=nM reported_result=290
line_notation=CN(C)CC/C=C1/c2ccccc2Sc2ccc(Cl)cc21 tested_on="rNav1.2 sodium channels (HEK-293 cells) (Rattus norvegicus)" unit_annotation=nM reported_result=730
line_notation=Fc1ccc([C@@H]2CCNC[C@H]2COc2ccc3c(c2)OCO3)cc1 tested_on="rNav1.2 sodium channels (HEK-293 cells) (Rattus norvegicus)" unit_annotation=nM reported_result=1990
line_notation=CN(C)CCC=C1c2ccccc2CCc2ccccc21 tested_on="rNav1.2 sodium channels (HEK-293 cells) (Rattus norvegicus)" unit_annotation=nM reported_result=3690

Query: // Ki lookup, key: `CCc1nn(CCCN2CCN(c3cccc(Cl)c3)CC2)c(=O)n1CCOc1ccccc1`
Response: 870

---

TESTED ON: rNav1.2 sodium channels (HEK-293 cells) (Rattus norvegicus, UniProt P04775)
Sequence (P04775 whole entry): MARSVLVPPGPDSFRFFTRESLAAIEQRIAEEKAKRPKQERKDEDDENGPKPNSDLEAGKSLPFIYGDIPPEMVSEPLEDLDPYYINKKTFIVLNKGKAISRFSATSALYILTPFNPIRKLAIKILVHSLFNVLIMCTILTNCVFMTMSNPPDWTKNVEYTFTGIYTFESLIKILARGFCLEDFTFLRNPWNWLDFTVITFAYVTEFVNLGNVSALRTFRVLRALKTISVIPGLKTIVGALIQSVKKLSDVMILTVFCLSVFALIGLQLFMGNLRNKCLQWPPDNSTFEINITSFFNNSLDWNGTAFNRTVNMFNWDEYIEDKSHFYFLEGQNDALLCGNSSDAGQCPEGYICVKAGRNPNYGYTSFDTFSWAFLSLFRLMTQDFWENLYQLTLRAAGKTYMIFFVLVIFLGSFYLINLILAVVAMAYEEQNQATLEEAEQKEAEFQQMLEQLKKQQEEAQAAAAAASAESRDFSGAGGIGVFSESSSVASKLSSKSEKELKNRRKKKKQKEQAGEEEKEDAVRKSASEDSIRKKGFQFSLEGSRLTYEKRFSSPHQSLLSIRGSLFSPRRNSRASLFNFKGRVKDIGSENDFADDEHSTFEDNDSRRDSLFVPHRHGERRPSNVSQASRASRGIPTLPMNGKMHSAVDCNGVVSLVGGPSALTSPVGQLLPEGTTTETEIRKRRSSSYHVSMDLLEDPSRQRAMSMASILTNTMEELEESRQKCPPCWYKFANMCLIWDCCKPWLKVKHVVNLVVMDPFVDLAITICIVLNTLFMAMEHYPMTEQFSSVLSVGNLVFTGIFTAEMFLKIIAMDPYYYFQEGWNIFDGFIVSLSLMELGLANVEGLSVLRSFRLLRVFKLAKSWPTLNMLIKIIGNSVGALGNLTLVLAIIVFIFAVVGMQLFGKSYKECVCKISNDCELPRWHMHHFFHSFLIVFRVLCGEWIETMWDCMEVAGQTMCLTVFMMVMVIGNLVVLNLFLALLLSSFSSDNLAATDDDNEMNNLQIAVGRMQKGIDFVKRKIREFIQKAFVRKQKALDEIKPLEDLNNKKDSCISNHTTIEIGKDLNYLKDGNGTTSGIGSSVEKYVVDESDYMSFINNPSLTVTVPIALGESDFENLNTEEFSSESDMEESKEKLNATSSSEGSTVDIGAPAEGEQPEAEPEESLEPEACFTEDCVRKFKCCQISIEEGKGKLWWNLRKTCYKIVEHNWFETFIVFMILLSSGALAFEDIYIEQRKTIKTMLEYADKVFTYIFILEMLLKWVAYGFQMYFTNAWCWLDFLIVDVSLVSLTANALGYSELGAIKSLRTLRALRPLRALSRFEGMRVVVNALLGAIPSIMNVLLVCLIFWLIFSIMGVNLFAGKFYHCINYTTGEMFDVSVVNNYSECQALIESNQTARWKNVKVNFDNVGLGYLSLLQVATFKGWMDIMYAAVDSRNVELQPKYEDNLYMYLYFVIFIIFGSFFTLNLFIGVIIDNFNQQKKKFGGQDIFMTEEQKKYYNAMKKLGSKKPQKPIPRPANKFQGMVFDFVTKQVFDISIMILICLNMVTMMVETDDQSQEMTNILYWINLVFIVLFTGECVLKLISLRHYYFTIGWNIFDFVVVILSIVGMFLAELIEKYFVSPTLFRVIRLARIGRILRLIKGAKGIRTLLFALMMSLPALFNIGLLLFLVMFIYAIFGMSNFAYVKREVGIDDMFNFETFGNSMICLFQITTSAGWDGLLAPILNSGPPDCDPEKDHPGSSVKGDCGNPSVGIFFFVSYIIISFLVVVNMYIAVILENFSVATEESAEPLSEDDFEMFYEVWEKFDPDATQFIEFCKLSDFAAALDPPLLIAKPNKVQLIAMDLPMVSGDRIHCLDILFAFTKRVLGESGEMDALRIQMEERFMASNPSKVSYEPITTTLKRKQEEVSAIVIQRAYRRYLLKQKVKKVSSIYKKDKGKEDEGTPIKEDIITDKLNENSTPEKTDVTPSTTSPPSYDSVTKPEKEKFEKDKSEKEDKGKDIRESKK
EXPERIMENT SUMMARY: 5 Hz train protocol, QPatch automated patch-clamp
Assay type: cell-based
MEASUREMENT CONTEXT: 30 μM; 500 s assigned where irreversible
Reported log10(τoff) values are given for each entry in this list.
Reminder: these figures are log10 of reported τoff, in s before transformation.

compound="CN(C)CC/C=C1/c2ccccc2Sc2ccc(Cl)cc21 [CHX, Chlorprothixene]" reported_result=1.16
compound="Cc1nc2sccn2c(=O)c1CCN1CCC(=C(c2ccc(F)cc2)c2ccc(F)cc2)CC1 [RIT, Ritanserin]" reported_result=1.35
compound="Cc1ccc(-c2nc(C)c(CN3CCN(C(c4ccccc4)c4ccccc4)CC3)[nH]2)cc1 [LIF, Lifarizine]" reported_result=2.70
compound="CNCCCN1c2ccccc2CCc2ccccc21 [DMI, Desipramine]" reported_result=1.71

From here, focus on the item given below.
Query: # lookup: log10(τoff) of Nc1nc2ccc(OC(F)(F)F)cc2s1 [RIL, Riluzole]
Response: 1.25

---

TESTED ON: rNav1.2 sodium channels (HEK-293 cells) (Rattus norvegicus)
EXPERIMENT SUMMARY: steady-state inactivation protocol (availability curves), QPatch automated patch-clamp
Format: cell-based
MEASUREMENT CONTEXT: HEK293; 100 µM; read-out: Inh (inhibited fraction) at holding potential −150 mV
inhibition at 100 µM overview

Recorded results for 4 compounds are shown here.
compound="CC12CC3CC(C)(C1)CC(N)(C3)C2 [MEM, Memantine]" reported_result=29%
compound=Nc1nc2ccc(OC(F)(F)F)cc2s1 reported_result=22%
compound=CN(C)CCC=C1c2ccccc2CCc2ccccc21 reported_result=59%
compound="Cc1ccc(C(=O)C(C)CN2CCCCC2)cc1 (centres unmarked)" reported_result=21%

We next turn to a different compound, shown below.
Query: GET /values?readout=inhibition at 100 µM&system=rNav1.2 sodium channels (HEK-293 cells) (Rattus norvegicus)&item= `O=C(O)Cc1ccccc1Nc1c(Cl)cccc1Cl`
Response: 3%
